- assay details: NCI Yeast Anticancer Drug Screen. Data for the cln2 rad14 strain (AID 165);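 note: 0% = growth equal to vehicle treated cultures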
- experimental parameters: S. cerevisiae cln2 rad14 strain, at 50.0 µM, active compounds read high
About 79,000 compounds went through this panel and 15% of them were active in at least one assay; those are over-represented in the sample as a whole.
recorded endpoint: growth inhibition (%)
Give bare numbers, in %.

molecule: Cc1cc(=O)n2c(n1)sc1ccc3ccccc3c12
growth inhibition / %: 12.8

Report growth inhibition for each item below.
1. Nc1nc(N)nc(-c2cc(Br)ccc2N)n1
2. Cc1cc2c(c(=O)o1)C(C)CC(c1c(O)cc(C)oc1=O)O2 (stereo not given)
3. Cc1ccc(S(=O)OC2C3CC4CC(C3)CC2C4)cc1 (stereo not given)
4. C=C1/C=C/C=C(/C)C(=O)Nc2c(C=O)c(O)c3c4c(c(C)c(O)c3c2O)OC(C)(O/C=C/C(OC)C(C)C(OC(C)=O)C(C)C(O)C(C)C1O)C4=O (stereo not given)
5. CC1(CO)CCCC1NCCNC1CCCC1(C)CO (stereo not given)
6. O=C(Nc1ccccc1)c1cccc(F)c1
7. CC1OC(OCC2OC(Oc3ccc4c(=O)c(-c5ccc6c(c5)OCO6)coc4c3)C(O)C(O)C2O)C(O)C(O)C1O (stereo not given)

1. 19.1
2. 5.85
3. 30.8
4. 34.2
5. 10.3
6. 9.1
7. 28.1

====

- assay details: NCI Yeast Anticancer Drug Screen. Data for the rad50 strain (AID 155);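 note: 0% = growth of vehicle-only cultures of the same strain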
- experimental parameters: S. cerevisiae rad50 strain growth inhibition; at 50.0 µM; active compounds read high
The panel holds about 79,000 compounds, 15% with a hit somewhere; the sample as a whole holds those more often.
Exercise: state measured growth inhibition for each of the compounds provided.
Answers are plain numbers, in %.

compound: C=CCSc1ncnc2nc[nH]c12
recorded endpoint: growth inhibition
measured number: 7.9
--
compound: CCOP(C)(=O)/C(Cc1ccc(OC)c(OC)c1)=N\O (configuration not stated)
recorded endpoint: growth inhibition
measured number: -21.4
--
compound: Brc1ccc(Nc2ccc(Br)cc2Br)c(Br)c1
recorded endpoint: growth inhibition
measured number: 28.2

Report growth inhibition for each item below.
1. Cc1ccc(S(=O)(=O)N2CN3CN(C2)CN(S(=O)(=O)c2ccc(C)cc2)C3)cc1
2. CC(=O)Oc1cc(C)c(OC(C)=O)c(C)c1C
3. [N-]=[N+]=NC1CC(n2ccc(N)nc2=O)OC1CO (configuration not stated)
4. O=[N+]([O-])c1ccc(/C=N/C(/N=C/c2ccc([N+](=O)[O-])cc2)c2ccc([N+](=O)[O-])cc2)cc1

1. 0.4
2. -12.8
3. -3.9
4. 8.05

Report growth inhibition for each item below.
1. CCOc1ccc(Cc2ccc3c(c2)OCO3)cc1C
2. COc1ccc(C(=O)CCc2cccc(NC(=O)CCCl)c2)cc1
3. O=C(CCBr)NC(=O)OC/C=C\c1ccccc1
4. O=[N+]([O-])C1C=Nc2ccccc2N=C1
5. C/C(=N\O)c1cccs1

[-17.2, -17.6, 7.7, 19.7, 3.8]

====

Exercise: state measured growth inhibition for each of the compounds provided.
- assay details: NCI Yeast Anticancer Drug Screen. Data for the sgs1 mgt1 strain (AID 161);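 note: 0% = growth of cultures given vehicle only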
- experimental parameters: S. cerevisiae sgs1 mgt1 strain, at 50.0 µM, active compounds read high
About 79,000 compounds went through this panel and 15% of them were active in at least one assay; those are over-represented in the sample as a whole.
Numbers only, in %.

# example entries with known answers
compound: O=c1nc(Sc2ccccc2)ccn1C1OC(CO)C(O)C1O (centres undefined)
growth inhibition [%]: -1.45

compound: CCCCN(CCCC)C(=O)/C=C\C(=O)O
growth inhibition [%]: -0.2

compound: CCCCCCCCCCOc1ccc(C=NC/C=C/c2ccc(CC)cc2)cc1
growth inhibition [%]: -13.7

compound: COC1(OC)CC2C(=O)N(Cc3ccccc3)C1C=C2S(=O)(=O)c1ccccc1 (centres undefined)
growth inhibition [%]: -18.2

Report growth inhibition for each item below.
1. COCCNC(=O)/C=C\C(=O)O
2. Brc1cc2c(cc1CC1CCCCO1)OCO2 (centres undefined)
3. O=C(Nc1ccccc1Cl)c1ccc(Cl)cc1

1. -2.95
2. 1.4
3. 8.05

Report growth inhibition for each item below.
1. OCCN(Cc1ccccn1)Cc1ccccn1
2. CCNCc1cc(Nc2nc(NC3CCC(N(C)C)CC3)c3ccccc3n2)ccc1OC (centres undefined)
3. CC1(C)CC2=C(Sc3ccccc3N2)C(=O)C1C(=O)C(=O)Nc1cc(Cl)ccc1Cl (centres undefined)
4. CC(C)(Cc1ccc([N+](=O)[O-])cc1)[N+](=O)[O-]
5. CN(C)CCNC(=O)c1ccc(C(=O)NCCN(C)C)c2c(C(=O)NCCN(C)C)ccc(C(=O)NCCN(C)C)c12

1. 36.2
2. -5.8
3. -6.85
4. 4.3
5. 37.2

Report growth inhibition for each item below.
1. CC(=O)Nc1nc(C)c(CC/C=C/c2ccc([N+](=O)[O-])cc2)c(Cl)n1
2. CCc1ccccc1NC(=O)C(=O)C1C(=O)N(c2ccccc2)N=C1N (centres undefined)
3. CCc1c(C(=O)OC)c(C(=O)OC)c(-c2ccc(C)cc2)n1CCn1c(CC)c(C(=O)OC)c(C(=O)OC)c1-c1ccc(C)cc1
4. O=C(CC(C(=O)c1ccsc1)c1cccs1)c1cccs1 (centres undefined)
5. COc1cc2cnc3c4ccccc4ccc3c2cc1OC
6. O=C(O)c1c2c(nc3ccccc13)CCC2

1. 38
2. -3
3. -26.1
4. 57.3
5. -1.7
6. 6.35
